Cited source for all entries: patent US20220112288A1

Consider the following binders and their measured Response readings.
biological target: T1, Rhesus macaque CD4-HIS (Acro Biosystems, Cat. CD4-C52H7) (rhesus macaque, UniProt P16003 26-390); experiment: BLI Octet, mAb on anti-mouse Fc sensor, rhesus CD4-HIS 25-100 nM, 1:1 global fit;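 note: purified antibodies captured at 10 µg/mL, rhesus CD4 analyte run as a three-concentration serial dilution, irrelevant antibody as reference control, one kinetic constant set per antibody from global fitting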
T1 construct: Bought reagent; also called Rhesus CD4; rhesus CD4-HIS; not shown: His tag
T1 sequence (P16003 26-390 limits assumed): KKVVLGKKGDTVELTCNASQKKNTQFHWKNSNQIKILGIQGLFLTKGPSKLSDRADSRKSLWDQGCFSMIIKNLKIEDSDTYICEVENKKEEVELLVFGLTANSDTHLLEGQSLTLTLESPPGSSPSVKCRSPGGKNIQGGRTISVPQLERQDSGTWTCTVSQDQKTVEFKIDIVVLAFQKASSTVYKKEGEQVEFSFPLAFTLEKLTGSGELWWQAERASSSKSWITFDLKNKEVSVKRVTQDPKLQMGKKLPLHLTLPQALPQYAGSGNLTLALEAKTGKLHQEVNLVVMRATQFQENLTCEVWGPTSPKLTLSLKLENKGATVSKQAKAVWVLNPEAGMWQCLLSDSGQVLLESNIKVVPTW

**Q:** Returns the measured Response for the input binder. Input: 75110_02N15A (antibody, V domains shown, Tested as antibody purified from AlivaMab Mouse hybridoma supernatant (captured by anti-mouse IgG Fc)) VH: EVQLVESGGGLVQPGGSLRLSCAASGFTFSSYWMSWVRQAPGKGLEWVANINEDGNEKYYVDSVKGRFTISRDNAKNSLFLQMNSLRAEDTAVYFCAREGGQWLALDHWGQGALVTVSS VL: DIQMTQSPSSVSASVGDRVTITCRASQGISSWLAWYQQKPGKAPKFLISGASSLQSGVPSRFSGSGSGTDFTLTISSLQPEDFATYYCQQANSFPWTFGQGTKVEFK
**A:** 0.29
